Tested on: BGC-823
Experiment notes: Cytotoxicity against human BGC823 cells by MTT assay
Assay type: functional, cell-based
Experimental readout: IC50 (µM)
Answers are plain numbers, in µM.

Past entries and their recorded results:
[
  {
    "Compound": "CC(=O)O[C@H]1CC[C@]2(C)[C@H]3CC=C4[C@@H]5[C@@H](C)[C@H](C)CC[C@]5(C(=O)OCC(O)CO)CC[C@@]4(C)[C@]3(C)CC[C@H]2C1(C)C (stereo partly drawn)",
    "IC50 (µM)": 15.7
  },
  {
    "Compound": "C[C@H]1[C@H](C)CC[C@]2(C(=O)OCC(O)CO)CC[C@]3(C)C(=CC[C@@H]4[C@@]5(C)CC[C@H](O)C(C)(C)[C@@H]5CC[C@]43C)[C@H]12 (stereo partly drawn)",
    "IC50 (µM)": 20.5
  }
]

As a next step, examine the compound that follows.
Reported IC50, compound CC(=O)O[C@H]1CC[C@]2(C)[C@H]3CC=C4[C@@H]5[C@@H](C)[C@H](C)CC[C@]5(C(=O)OCCO)CC[C@@]4(C)[C@]3(C)CC[C@H]2C1(C)C : ____
17.2
